- TARGET_OF_ASSAY: Peroxisome proliferator-activated receptor gamma/Nuclear receptor coactivator 3 (Homo sapiens);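 note: agonist potency for raising coactivator recruitment to the receptor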
- Sequence (P37231 whole entry): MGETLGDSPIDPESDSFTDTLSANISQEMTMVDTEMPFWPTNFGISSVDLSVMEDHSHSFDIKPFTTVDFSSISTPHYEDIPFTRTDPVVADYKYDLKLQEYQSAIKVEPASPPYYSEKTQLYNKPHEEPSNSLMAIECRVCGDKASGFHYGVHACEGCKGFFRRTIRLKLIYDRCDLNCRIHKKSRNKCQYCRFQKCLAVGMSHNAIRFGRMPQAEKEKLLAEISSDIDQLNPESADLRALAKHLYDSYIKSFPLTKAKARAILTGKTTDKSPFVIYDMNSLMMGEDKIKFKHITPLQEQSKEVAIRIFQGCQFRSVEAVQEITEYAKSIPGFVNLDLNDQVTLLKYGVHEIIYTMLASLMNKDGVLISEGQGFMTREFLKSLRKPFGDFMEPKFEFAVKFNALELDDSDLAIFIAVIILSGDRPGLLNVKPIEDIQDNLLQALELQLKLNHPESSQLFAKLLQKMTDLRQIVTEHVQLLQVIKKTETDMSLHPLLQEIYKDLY
- Sequence (Q9Y6Q9 whole entry, further chain): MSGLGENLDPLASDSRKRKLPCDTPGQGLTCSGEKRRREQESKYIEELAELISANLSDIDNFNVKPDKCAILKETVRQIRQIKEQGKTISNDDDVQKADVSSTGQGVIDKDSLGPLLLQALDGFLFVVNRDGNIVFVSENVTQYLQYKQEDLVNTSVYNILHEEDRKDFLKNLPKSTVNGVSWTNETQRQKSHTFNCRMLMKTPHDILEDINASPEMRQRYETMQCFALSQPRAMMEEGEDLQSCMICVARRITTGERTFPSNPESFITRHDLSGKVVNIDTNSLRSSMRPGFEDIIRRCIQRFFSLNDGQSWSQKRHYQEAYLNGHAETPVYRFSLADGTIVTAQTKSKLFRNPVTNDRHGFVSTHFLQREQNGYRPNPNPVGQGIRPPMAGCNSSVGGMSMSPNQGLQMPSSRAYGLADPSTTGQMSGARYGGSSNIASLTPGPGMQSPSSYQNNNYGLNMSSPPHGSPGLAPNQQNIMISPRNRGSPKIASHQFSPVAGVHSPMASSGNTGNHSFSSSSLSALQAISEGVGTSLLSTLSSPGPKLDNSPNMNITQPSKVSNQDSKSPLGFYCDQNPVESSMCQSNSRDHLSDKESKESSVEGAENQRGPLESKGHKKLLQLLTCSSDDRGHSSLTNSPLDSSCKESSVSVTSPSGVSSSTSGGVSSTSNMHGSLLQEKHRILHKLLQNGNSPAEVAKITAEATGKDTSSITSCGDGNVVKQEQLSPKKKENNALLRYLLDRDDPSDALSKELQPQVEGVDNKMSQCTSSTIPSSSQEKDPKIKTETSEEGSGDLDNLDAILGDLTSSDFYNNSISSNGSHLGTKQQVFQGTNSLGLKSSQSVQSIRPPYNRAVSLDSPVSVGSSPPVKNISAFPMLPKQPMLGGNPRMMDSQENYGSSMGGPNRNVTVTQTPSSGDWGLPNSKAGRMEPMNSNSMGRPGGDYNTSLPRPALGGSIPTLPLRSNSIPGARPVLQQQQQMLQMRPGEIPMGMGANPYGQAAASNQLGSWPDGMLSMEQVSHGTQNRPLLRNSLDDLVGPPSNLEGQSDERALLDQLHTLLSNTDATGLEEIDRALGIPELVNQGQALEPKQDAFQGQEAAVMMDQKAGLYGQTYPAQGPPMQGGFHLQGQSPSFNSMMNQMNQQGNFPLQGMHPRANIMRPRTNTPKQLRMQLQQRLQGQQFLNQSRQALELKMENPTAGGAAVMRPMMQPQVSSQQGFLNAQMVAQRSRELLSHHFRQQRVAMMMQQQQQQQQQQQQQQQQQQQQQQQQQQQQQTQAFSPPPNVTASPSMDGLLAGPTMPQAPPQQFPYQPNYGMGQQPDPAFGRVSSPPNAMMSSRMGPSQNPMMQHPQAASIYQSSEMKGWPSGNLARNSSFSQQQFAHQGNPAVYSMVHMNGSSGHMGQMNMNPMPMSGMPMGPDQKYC
- Type: functional
Activity calls are given as the source filed them.
MEASURED_QUANTITY: EC50

As a guide, the following entries are already answered.
COMPOUND: CC(C)(O)C#Cc1ccc(CN2CCN(C3CCCCC3)C(CCO)C2)cc1 (centres undefined)
EC50: > 79.4 µM (not active)

COMPOUND: CN(CP(=O)(O)CN(C)S(C)(=O)=O)S(C)(=O)=O
EC50: > 79.4 µM (not active)

COMPOUND: O=C(N/N=C/c1ccc(O)cc1)c1csc2ccccc12
EC50: > 79.4 µM (not active)

From here, focus on the item given below.
Field request: EC50 | item: "N#Cc1c(NC(=O)c2ccccc2Cl)n(Cc2ccccc2)c2nc3ccccc3nc12" 9.38 µM (active)

---

- ASSAY_TEXT: NIH3T3 cell viability loss – ATP luminescence, mouse fibroblasts, counter-screen, dose response (AID 2010);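 note: cells exposed to compound for about 90 hours before reading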
- Format: functional, cell-based
Active and inactive are the calls of the source.
MEASURED_QUANTITY: EC50

COMPOUND: COc1ccccc1C1NC=C([N+](=O)[O-])C=C1[N+](=O)[O-] (stereo not given)
EC50: > 60 µM (not active)
--
COMPOUND: Cc1ccc(C(=O)NC(=S)Nc2ccc(CN3CCCCC3)cc2)c(C)c1
EC50: 15.8 µM (active)
--
COMPOUND: O=C(C1=C[C@H](C2CCCCC2)C[C@H](OCCCCO)O1)N1CCN(Cc2ccc3c(c2)OCO3)CC1
EC50: > 60 µM (not active)
--
COMPOUND: Fc1ccccc1COc1ccccc1CNCc1ccncc1
EC50: > 60 µM (not active)
--
COMPOUND: Cc1ccc(S(=O)(=O)NC(=O)Nc2ccc(N(C)C)cc2)cc1
EC50: > 60 µM (not active)

Field request: EC50 | item: "C/C(=N\OC(=O)NC1CCCCC1)c1sc(-c2ccccc2)nc1C" > 60 µM (not active)

Field request: EC50 | item: "O=C1N(Cc2cccc(Cl)c2)C[C@@H]2C[C@@H](c3c[nH]c4ccccc34)N3CCC[C@@]123" > 60 µM (inconclusive)

Field request: EC50 | item: "Cc1ccc(S(=O)(=O)NCCn2cnc([N+](=O)[O-])n2)cc1" > 60 µM (not active)

Field request: EC50 | item: "N=c1c(S(=O)(=O)c2ccc(Cl)cc2)cc2c(=O)n3ccccc3nc2n1C1CCCC1" 11.4 µM (active)

Field request: EC50 | item: "O=[N+]([O-])c1ccc(CN2CCN(Cc3c[nH]c4ccccc34)CC2)cc1" > 60 µM (not active)

---

- TARGET_OF_ASSAY: Mannose-6-phosphate isomerase (Homo sapiens)
- Sequence (P34949 whole entry): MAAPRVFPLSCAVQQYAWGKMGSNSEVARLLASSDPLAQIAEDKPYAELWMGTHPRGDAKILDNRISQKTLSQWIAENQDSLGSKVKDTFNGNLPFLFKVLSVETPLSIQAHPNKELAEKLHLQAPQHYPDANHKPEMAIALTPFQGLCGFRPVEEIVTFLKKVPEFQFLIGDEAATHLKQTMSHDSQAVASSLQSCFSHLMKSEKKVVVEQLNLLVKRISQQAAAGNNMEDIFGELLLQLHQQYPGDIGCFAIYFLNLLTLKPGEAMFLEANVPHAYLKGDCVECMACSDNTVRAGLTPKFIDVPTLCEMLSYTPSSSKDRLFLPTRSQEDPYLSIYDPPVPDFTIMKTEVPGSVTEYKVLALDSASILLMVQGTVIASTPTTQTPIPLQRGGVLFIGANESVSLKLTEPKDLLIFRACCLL
- ASSAY_TEXT: MPI inhibition at elevated mannose 6-phosphate – biochemical, fluorescence intensity, high mannose 6-phosphate, primary screen (AID 1220)
Active and inactive are the calls of the source.
# maps each entry to its IC50

As a guide, the following entries are already answered.
LINE_NOTATION: CNc1nc(-c2ccccc2)[n+](-c2ccc(C)cc2)s1
IC50: 6.89 µM (active)

LINE_NOTATION: CCN(CC)c1ccc(NC(=S)Nc2ccc(F)cc2)cc1
IC50: > 50 µM (not active)

LINE_NOTATION: CCOc1ccc(NC(S)=Nc2cccc3cnccc23)cc1
IC50: > 50 µM (not active)

From here, focus on the item given below.
Field request: IC50 | item: "CCCCn1c(NC(=O)c2ccco2)c(S(=O)(=O)c2ccc(C)cc2)c2nc3ccccc3nc21" > 50 µM (not active)
